# System Under Test: human thrombin (Homo sapiens)
# Experiment Notes: Inhibition of amidolytic activity of human thrombin (Ki, fluorogenic substrate Tos-Gly-Pro-Arg-AMC)
# Format: biochemical
# Test Conditions: Table 1, read-out: Ki (inhibitory dissociation constant for human thrombin)
Measured Endpoint: Ki (µM)
Give the quantity in µM, number only.

Worked cases, answers included:
{"Compound": "N=C(N)NCCCC(NC(=O)[C@@H]1CSC2CC[C@@H](CC3CCCCC3)C(=O)N21)C(=O)Cc1ccccc1 (stereo partly drawn)", "Measured Number": 2.2}
{"Compound": "N=C(N)NCCC[C@H](NC(=O)[C@@H]1CSC2CC[C@@H](CC3CCCCC3)C(=O)N21)C(=O)N1CCCC(C(N)=O)C1 (stereo partly drawn)", "Measured Number": 19}

Below: the item to evaluate.
Endpoint output: Ki of N=C(N)NCCC[C@H](NC(=O)[C@@H]1CSC2CC[C@@H](CC3CCCCC3)C(=O)N21)C(=O)N1CCC(C(N)=O)CC1 (stereo partly drawn) . Value?
74

----------
log10 of Ki overview
# System Under Test: human thrombin (Homo sapiens, UniProt P00734)
# Experiment Notes: Inhibition of amidolytic activity of human thrombin (Ki, fluorogenic substrate Tos-Gly-Pro-Arg-AMC)
# Assay type: biochemical
# Test Conditions: Table 2, read-out: Ki
Heads up: the numbers are on a log10 scale; they represent Ki in µM.

Worked cases, answers included:
{"Molecule": "Cn1ccnc1C(=O)C(CCCNC(=N)N)NC(=O)[C@@H]1CS[C@@H]2CC[C@@H](Cc3ccccc3)C(=O)N21 (stereo partly drawn) [Compound 0255]", "log10 of Ki": -0.30}
{"Molecule": "N=C(N)NCCCC(NC(=O)C1CSC2CCC(NC(=O)CCc3ccccc3)C(=O)N21)C(=O)c1nccs1 (stereo not drawn) [0315a + b]", "log10 of Ki": -1.35}
{"Molecule": "N=C(N)NCCCC(NC(=O)[C@@H]1CS(=O)(=O)C[C@H]2CC[C@@H](Cc3ccccc3)C(=O)N21)C(=O)c1nccs1 (single isomer, unassigned) [Compound 0950b]", "log10 of Ki": 0.00}
{"Molecule": "N=C(N)NCCCC(NC(=O)[C@@H]1CSC2CC[C@H](NC(=O)CCc3ccccc3)C(=O)N21)C(=O)c1nccs1 (single isomer, unassigned) [Compound 0305b]", "log10 of Ki": 1.08}
{"Molecule": "N=C(N)NCCCC(NC(=O)[C@@H]1CS(=O)(=O)C[C@H]2CC[C@@H](Cc3ccccc3)C(=O)N21)C(=O)c1nccs1 (single isomer, unassigned) [Compound 0950a]", "log10 of Ki": -0.82}
{"Molecule": "N=C(N)NCCCC(NC(=O)[C@@H]1CSCC2CCCC(=O)N21)C(=O)c1nccs1 (stereo partly drawn) [Compound 0915]", "log10 of Ki": 0.20}
{"Molecule": "N=C(N)NCCCC(NC(=O)[C@@H]1CSC[C@H]2CC[C@@H](CCc3ccccc3)C(=O)N21)C(=O)c1nccs1 (single isomer, unassigned) [Compound 0940a]", "log10 of Ki": -1.80}
{"Molecule": "N=C(N)NCCCC(NC(=O)C1CSC2CCC(N3C(=O)c4ccccc4C3=O)C(=O)N21)C(=O)c1nccs1 (single isomer, unassigned) [Compound 0295a]", "log10 of Ki": 0.18}
{"Molecule": "N=C(N)NCCCC(NC(=O)[C@@H]1CSC[C@H]2CC[C@@H](CCc3ccccc3)C(=O)N21)C(=O)c1nccs1 (single isomer, unassigned) [Compound 0940b]", "log10 of Ki": -0.80}
{"Molecule": "N=C(N)NCCCC(NC(=O)[C@@H]1CSC[C@H]2CC[C@@H](Cc3ccccc3)C(=O)N21)C(=O)c1nccs1 (single isomer, unassigned) [Compound 0925a]", "log10 of Ki": -2.15}

Endpoint output: log10 of Ki of N=C(N)NCCCC(NC(=O)C1CSC2CCC(NC(=O)CCc3ccccc3)C(=O)N21)C(=O)c1nccs1 (stereo not drawn) [Compound 0315b] . Value?
-2.00

Record: N=C(N)NCCCC(NC(=O)[C@@H]1CSC[C@H]2CC[C@@H](Cc3ccccc3)C(=O)N21)C(=O)c1nccs1 (single isomer, unassigned) [Compound 0925b]
-1.52

----------
# System Under Test: UniProt:P00734
# Experiment Notes: Inhibition of amidolytic activity of human thrombin (Ki, fluorogenic substrate Tos-Gly-Pro-Arg-AMC)
# Assay type: biochemical
# Test Conditions: Table 2, read-out: Ki
Measured Endpoint: pKi
pKi field: float, defined as -log10 of concentration (mol/L).

Endpoint output: pKi of N=C(N)NCCCC(NC(=O)[C@@H]1CSC2CC[C@H](NC(=O)CCc3ccccc3)C(=O)N21)C(=O)c1nccs1 (single isomer, unassigned) [Compound 0305a] . Value?
6.66

Record: N=C(N)NCCCC(NC(=O)[C@@H]1CS[C@H]2CC[C@@H](Cc3ccccc3)C(=O)N21)C(=O)c1nc2ccccc2s1 (stereo partly shown)
8.10

Record: N=C(N)NCCCC(NC(=O)[C@@H]1CSCC2CC[C@@H](Cc3ccccc3)C(=O)N21)C(=O)c1nccs1 (stereo partly shown) [0925a + b]
8.00

Record: N=C(N)NCCCC(NC(=O)[C@@H]1CC[C@H]2CN(C(=O)CCc3ccccc3)CC(=O)N21)C(=O)c1nccs1 (stereo partly shown)
9.22

----------
# Test system: washed platelets from rats
# Experiment Notes: Platelet secretion (14C-serotonin, 5-HT, release from washed rat platelets, thrombin stimulated)
# Type: cell-based
# Test Conditions: Table 1, human thrombin 0.1 IU/mL, read-out: Antiplatelet activity, 5-HT Secretion (IC50)
IC50 overview

{"Compound": "CC(SCC(=O)C(CCCNC(=N)N)NC(=O)[C@@H]1CSC2CC[C@@H](CC3CCCCC3)C(=O)N21)C(=O)O (stereo partly drawn)", "Measured Endpoint": "IC50", "Result": "2.1 µM"}

Endpoint output: IC50 of N=C(N)NCCC[C@H](NC(=O)[C@@H]1CSC2CC[C@@H](CC3CCCCC3)C(=O)N21)C(=O)N1CCCC[C@@H]1C(=O)O (stereo partly drawn) . Value?
> 100 µM

Record: COC(=O)CCC(=O)C(CCCNC(=N)N)NC(=O)[C@@H]1CSC2CC[C@@H](Cc3ccccc3)C(=O)N21 (stereo partly drawn)
> 100 µM

----------
# System: washed platelets from rats
# Experiment Notes: Platelet secretion (14C-serotonin, 5-HT, release from washed rat platelets, thrombin stimulated)
# Format: cell-based
# Test Conditions: Table 1, human thrombin 0.1 IU/mL, read-out: Antiplatelet activity, 5-HT Secretion (IC50)
Measured Endpoint: IC50 (µM)
Give the quantity in µM, number only.

Endpoint output: IC50 of N=C(N)NCCCC(NC(=O)[C@@H]1CSC2CC[C@@H](CC3CCCCC3)C(=O)N21)C(=O)C[n+]1ccc2ccccc2c1 (stereo partly shown) . Value?
0.38

Record: CCCCC(=O)C(CCCNC(=N)N)NC(=O)[C@@H]1CSC2CC[C@@H](Cc3ccccc3)C(=O)N21 (stereo partly shown)
19

Record: N=C(N)NCCCC(NC(=O)[C@@H]1CSC2CC[C@@H](CC3CCCCC3)C(=O)N21)C(=O)CSCC(=O)O (stereo partly shown)
52

Record: N=C(N)NCCCC(NC(=O)[C@@H]1CSC2CC[C@@H](CC3CCCCC3)C(=O)N21)C(=O)Cc1ccccc1 (stereo partly shown)
14.2

----------
# System Under Test: human thrombin (Homo sapiens)
# Experiment Notes: Fibrin clot assay (human plasma, turbidity)
# Assay type: biochemical
# Test Conditions: Table 1, 1 nM thrombin, at 30 minutes
IC50 overview

Worked cases, answers included:
{"Molecule": "N=C(N)NCCCC(NC(=O)[C@@H]1CSC2CC[C@@H](Cc3ccccc3)C(=O)N21)C1(CCCCC(N)=O)SCCS1 (stereo partly shown)", "IC50": "> 450 µM"}
{"Molecule": "N=C(N)NCCC[C@H](NC(=O)[C@@H]1CSC2CC[C@@H](CC3CCCCC3)C(=O)N21)C(=O)N1CCCC[C@@H]1C(=O)O (stereo partly shown)", "IC50": "320 µM"}
{"Molecule": "N=C(N)NCCCC(NC(=O)[C@@H]1CSC2CC[C@@H](CC3CCCCC3)C(=O)N21)C(=O)CSCC(=O)O (stereo partly shown)", "IC50": "200 µM"}
{"Molecule": "N=C(N)NCCCC(NC(=O)[C@@H]1CSC2CC[C@@H](CC3CCCCC3)C(=O)N21)C(=O)Cc1ccccc1 (stereo partly shown)", "IC50": "> 450 µM"}
{"Molecule": "CCCC(=O)C(CCCNC(=N)N)NC(=O)[C@@H]1CSC2CC[C@@H](Cc3ccccc3)C(=O)N21 (stereo partly shown)", "IC50": "> 450 µM"}
{"Molecule": "COC(=O)CCC(=O)C(CCCNC(=N)N)NC(=O)[C@@H]1CSC2CC[C@@H](Cc3ccccc3)C(=O)N21 (stereo partly shown)", "IC50": "> 450 µM"}

Below: the item to evaluate.
Endpoint output: IC50 of N=C(N)NCCC[C@H](NC(=O)[C@@H]1CSC2CC[C@@H](CC3CCCCC3)C(=O)N21)C(=O)N1CCCC(C(N)=O)C1 (stereo partly shown) . Value?
> 450 µM

Attribution: patent US6057314A
